This collection of values is drawn from paper PMC9348534.

Test system: 4T1 cells
TEST: Cell viability assay (trypan blue exclusion or MTT)
Type: cell-based
RUN_PARAMETERS: Mus musculus; 4T1, 24 hours treatment; read-out: IC 50 value
READOUT_KIND: pIC50
The value called pIC50 is obtained by taking minus log10 of the concentration in mol/L.

Ask: # value lookup — system 4T1 cells, readout pIC50, item Cc1cc(C=C2CCC(=Cc3cc(C)c(O)c(C)c3)C2O)cc(C)c1O (stereo not shown)
Reply: 5.52

###

System: Caco2 cells
TEST: Cell viability assay (trypan blue exclusion or MTT)
Type: cell-based
RUN_PARAMETERS: Homo sapiens, Caco-2; Caco2, 24 hours treatment; read-out: IC 50 value
Form field: IC50 (one value per entry).
Express your answer in µM, writing the number without its unit.

Cc1cc(C=C2CCC(=Cc3cc(C)c(O)c(C)c3)C2O)cc(C)c1O (centres unmarked)    5

Now for another entry.
Ask: Which IC50 is listed for Cc1cc(C=C2CCC(=Cc3cc(C)c(O)c(C)c3)C2=O)cc(C)c1O ?
Reply: 12
